FYI, the data here is from the RNAGym collection of RNA variant scans (doi:10.1093/molbev/msab373).

B1: Azoarcus group I ribozyme (parent)
chain: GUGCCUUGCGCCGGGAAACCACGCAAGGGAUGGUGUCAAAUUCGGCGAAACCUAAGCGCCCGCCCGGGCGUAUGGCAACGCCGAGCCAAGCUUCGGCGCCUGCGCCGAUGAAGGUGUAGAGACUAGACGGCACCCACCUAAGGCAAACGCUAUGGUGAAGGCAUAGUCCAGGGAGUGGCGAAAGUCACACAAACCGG

# Variants of: B1
# Assay details: reverse-splicing fitness (ratio to wild type); higher = more active; in vitro selection; Mg2+ level not given
In this scheme, each record receives a class according to its reverse-splicing fitness; the ranges are zone 1 = under 0.007, zone 2 = from 0.007 up to 0.02, zone 3 = 0.02 and over

Before answering, review these 3 worked examples.
A111G A145G C150A U176G	zone 3
C82U A111G A120U A145G C150G C169U	zone 1
C82G A111G A145G C150G C169A	zone 2

Q: GET /class?item= C82G A111G A120G A145G C150U C169A U176C
Ans: zone 2

Q: GET /class?item= C82U A120U
Ans: zone 3

Q: GET /class?item= C82U A111C A145G C169G U176A
Ans: zone 3

Q: GET /class?item= C82G A111G A120G A145C U176C
Ans: zone 2
